Data credit: patent US20060240015A1

Would you mind telling me the reported Ka of each entry?
- target: T1, human insulin-like growth factor-I (human, UniProt P05019 49-118)
- T1 construct: mature; In the ELISAs it was coated as a conjugate with methylated BSA; in Biacore it was amine-coupled to a CM-5 chip; also called hIGF-I; IGF-I
- T1 sequence (P05019 49-118): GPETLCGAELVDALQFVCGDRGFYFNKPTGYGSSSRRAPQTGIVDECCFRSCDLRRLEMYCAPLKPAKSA
- procedure.summary: SPR (Biacore 2000), hIGF-I amine-coupled on CM-5, antibody as analyte, 25 C
Use M⁻¹ as the unit, but write only the number.

## Task Consider the binder anti-hIGF CDR-grafted antibody CamHV0/LV0 (antibody, human IgG1, V domains shown, Human IgG1, kappa (pKANTEX93); also called CmaHV0/LV0) VH: QVQLVESGGGVVQPGRSLRLSCAASGFTFSNYYMTWVRQAPGKGLEWVAYISSGGGSTYYRDSVKGRFTISRDNSKNTLYLQMNSLRAEDTAVYYCAREDYGYWFAYWGQGTLVTVSS VL: DIVMTQSPDSLAVSLGERATINCRASSSVSYMHWYQQKPGQPPKLLIYGTSKLASGVPDRFSGSGSGTDFTLTISSLQAEDVAVYYCLQRSSYPPTFGQGTKVEIK and give its recorded Ka.
## Result 1.7e+08

## Task Consider the binder anti-hIGF CDR-grafted antibody QGAR/PLLDFT (antibody, human IgG1, V domains shown, Human IgG1, kappa (pKANTEX93)) VH: EVQLVESGGGVVQPGRSLRLSCAASGFTFSNYYMTWVRQAPTKGLEWVAYISSGGGSTYYRDSVKGRFTISRDNSKNTLYLQMNSLRAEDTAVYYCTTEDYGYWFAYWGQGTLVTVSS VL: DIVMTQSPDSLAVSLGERATINCRASSSVSYMHWYQQKPGQSPKPWIYGTSKLASGVPDRFSGSGSGTSYSLTISSLQAEDVAVYYCLQRSSYPPTFGQGTKVEIK and give its recorded Ka.
## Result 2.78e+09

## Task Consider the binder anti-hIGF human chimeric antibody KM3002 (antibody, human IgG1, V domains shown, V regions of KM1468 on human IgG1, kappa constant regions (vector pKANTEX93); also called anti-hIGF chimeric antibody KM3002) VH: EVHLVESGGGLVQPGRSLKLSCAASGFTFSNYYMTWVRQAPTKGLEWVAYISSGGGSTYYRDSVKGRFTISRDNAKSTLYLQMDSLRSEDTATYYCTTEDYGYWFAYWGQGTLVTVSS VL: EIVLTQSPTTMAASPGEKVTITCRASSSVSYMHWFQQKSGTSPKPWIYGTSKLASGVPDRFSGSGSGTSYSLTISSMEAEDAATYYCLQRSSYPPTFGAGTKLELK and give its recorded Ka.
## Result 2.94e+09
